Field: self-cleavage kobs at 2500 uM GlcN6P. Provide a value for each of the variants that follow.
B1: glmS ribozyme (parent)
chain: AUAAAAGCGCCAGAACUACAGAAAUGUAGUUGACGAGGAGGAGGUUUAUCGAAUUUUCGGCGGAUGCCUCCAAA

Variants of: B1
Experiment: self-cleavage kobs at 2500 uM GlcN6P; higher = faster cleavage; RNA array
Details: with glucosamine-6-phosphate
Variants at the floor of the assay were thinned out.
Dear colleague, please return just the value in s⁻¹, with no unit written.

// field: self-cleavage kobs at 2500 uM GlcN6P; key: U30C U47G ; value = 3.09e-05

// field: self-cleavage kobs at 2500 uM GlcN6P; key: U30C C70A ; value = 5.57e-05

// field: self-cleavage kobs at 2500 uM GlcN6P; key: A12G C16U U69G ; value = 6.28e-05

// field: self-cleavage kobs at 2500 uM GlcN6P; key: G40C C70A ; value = 0.00016

// field: self-cleavage kobs at 2500 uM GlcN6P; key: G43C U45G ; value = 0.00109

// field: self-cleavage kobs at 2500 uM GlcN6P; key: A6U U31A ; value = 8.83e-05

// field: self-cleavage kobs at 2500 uM GlcN6P; key: G38U C50G A64G ; value = 3.85e-05

// field: self-cleavage kobs at 2500 uM GlcN6P; key: U56A ; value = 0.00725

// field: self-cleavage kobs at 2500 uM GlcN6P; key: G40C G41U C71A ; value = 4.86e-05

// field: self-cleavage kobs at 2500 uM GlcN6P; key: C16U U65A U69A ; value = 4.97e-05

// field: self-cleavage kobs at 2500 uM GlcN6P; key: A39G U55G A64G ; value = 0.00731
